# assayName: adipocyte viability effects, profiling panel, cell-based, 3T3-L1 adipocytes, calcein-AM fluorescence, 48 h, basal (AID 1163); further: test concentration not given here
# conditionInfo: 3T3-L1 adipocytes viability, higher = more signal
// reported z-score for each item listed
measure: z-score

compound=COc1ccc(C(=O)Nc2cccc(CN3C(=O)[C@@]4(O[C@@H](CC(=O)N(CCO)Cc5ccccc5)[C@H]([Si](C)(C)c5ccc(OC)cc5)[C@H]4C)c4ccccc43)c2)cc1 measure=z-score number=1.36
compound=[N-]=[N+]=NC[C@H](Cc1ccccc1)NC(=O)c1ccccc1 measure=z-score number=0.474
compound="COC(=O)C1=CC(CCCO)=CC(C)N(Cc2cccc(OC(F)(F)F)c2)C=C1C(=O)OC (configuration not stated)" measure=z-score number=0.0937
compound=Cc1ccc(S[C@]2(C(=O)NCc3ccccc3)CC(=O)N(Cc3cc(C(F)(F)F)cc(C(F)(F)F)c3)[C@@H]2c2ccc(CO)cc2I)cc1 measure=z-score number=0.336
compound=CO[C@H]1O[C@H](CO)[C@@H](OC(=O)Nc2ccc(C#N)cc2)[C@@H]2OC(=O)[C@H](Cc3cccc(Br)c3)C/C=C/C[C@@H](Cc3cccc(Br)c3)C(=O)O[C@@H]12 measure=z-score number=0.685
compound=COc1ccc([Si](C)(C)[C@@H]2[C@@H](CC(=O)N3Cc4ccccc4C[C@H]3CO)O[C@]3(C(=O)N(Cc4ccc(N5CCC5=O)cc4)c4ccccc43)[C@H]2C)cc1 measure=z-score number=0.233
compound=COCCOC(=O)N1C(=O)[C@@]2(c3cc(C#CCC(C(=O)OC)C(=O)OC)ccc31)[C@H](C(=O)NC[C@H](O)c1ccccc1)[C@H]1C(=O)O[C@H](c3ccccc3)[C@H](c3ccccc3)N1[C@@H]2c1ccc(O)cc1 measure=z-score number=0.408
compound=COCCOC(=O)N1C(=O)[C@@]2(c3cc(C#CCNC(N)=O)ccc31)[C@H](c1ccc(O)cc1)N1[C@H](c3ccccc3)[C@H](c3ccccc3)OC(=O)[C@H]1[C@@H]2C(=O)N1CCN(c2ncccn2)CC1 measure=z-score number=-0.901
compound=CO[C@H]1O[C@H](CO)[C@@H](OC(=O)Nc2cccc(F)c2)[C@H](OC(=O)Nc2ccccc2-c2ccccc2)[C@H]1OC(=O)Nc1ccccc1-c1ccccc1 measure=z-score number=0.737
compound=C=C(/C(=C/C[C@@H](OC(C)=O)c1ccc(OCCO)cc1)c1cc(C(=O)OC)ccc1OC)C(C)C measure=z-score number=-0.345
compound=COCCOC(=O)N1C(=O)[C@@]2(c3ccccc31)[C@H](c1ccc(OCCO)cc1)N1[C@H](c3ccccc3)[C@H](c3ccccc3)OC(=O)[C@H]1[C@@H]2C(=O)N1CCCCCCC1 measure=z-score number=0.0203
compound=COCCOC(=O)N1C(=O)[C@@]2(c3cc(C#CC4=CCCCC4)ccc31)[C@H](C(=O)N1CCCCCCC1)[C@H]1C(=O)O[C@H](c3ccccc3)[C@H](c3ccccc3)N1[C@@H]2c1ccc(OCCO)cc1 measure=z-score number=1.74
compound=C=C(COC)C(=O)CC[C@H](OC(=O)c1cccnc1)c1ccc(CO)o1 measure=z-score number=-0.266
compound=CCCCC(=O)N(CCN1CCOCC1)[C@@H]1CC(C(=O)NCCO)=C[C@H](Oc2c(I)cc(CO)cc2OC)[C@H]1O measure=z-score number=-1.07
compound=CC(C)[Si]1(C(C)C)OCc2cc(-c3ccc(-c4ccc(Cl)c(Cl)c4)o3)nc(CCc3ccccc3)c21 measure=z-score number=0.405
compound="C=CCC(OC(C)=O)[C@@H]1[C@@H](N(Cc2cc3ccccc3o2)C(=O)c2ccc(-c3ccccc3)cc2)c2cc(OCCCO)ccc2N1C(=O)Cc1ccc(OC)cc1 (some centres not stated)" measure=z-score number=0.443
compound=CCOC(=O)C[C@H]1[C@H](OC(=O)c2cc3ccccc3oc2=O)[C@@H](NC(=O)c2ccc3ccccc3c2)c2cc(OCCCO)ccc2N1C(=O)Cc1ccc(OC)cc1 measure=z-score number=0.528
compound=[N-]=[N+]=NCc1ccccc1[C@H]1OC(c2ccc(OCCCO)cc2)=N[C@@]1(CCS(=O)(=O)c1ccccc1)C(=O)NCc1ccccc1 measure=z-score number=-0.0706
compound=COCC(=C=CC[C@@H](O)c1cccc(OCCO)c1)CCO measure=z-score number=0.314
compound="CC(=O)n1cc(C(O)C2C=CC3C(=O)N(c4ccccc4)C(=O)C3N2Nc2ccc(C(C)C)cc2)c2ccccc21 (configuration not stated)" measure=z-score number=-0.745
compound=NCCCCCNC(=O)[C@@H]1C[C@@H]2C(=O)N3CCC[C@H]3C(=O)N2[C@@H]1c1ccc(O)cc1 measure=z-score number=0.485
compound=CC(C)C[C@@H]1NC(=O)[C@@H]2C[C@H](C(=O)NCCCCCC[N+](C)(C)C)[C@H](c3cccc(OCCO)c3)N2C1=O measure=z-score number=0.137
compound=COc1cccc(/C=C(\C#N)C(=O)Nc2c(C)n(C)n(-c3ccccc3)c2=O)c1 measure=z-score number=1.12
compound="O=C1C2C=CC(C(O)C=Cc3ccc([N+](=O)[O-])cc3)N(Nc3ccccc3)C2C(=O)N1c1ccccc1 (configuration not stated)" measure=z-score number=-0.123
compound="CC(=O)N1CC(C(O)C2C=CC3C(=O)NC(=O)C3N2Nc2ccc(Cl)cc2Cl)c2ccccc21 (configuration not stated)" measure=z-score number=-0.753
compound="CCCCCCCCCCC(O)C1C=CC2C(=O)N(c3ccccc3)C(=O)C2N1Nc1ccccc1F (configuration not stated)" measure=z-score number=-0.849
compound="CC(C)C[C@@H]1NC(=O)CNC(=O)[C@@]23C(=O)N[C@@H](Cc4ccccc4)C2[C@H](C)[C@@]2(C)O[C@H]2C3/C=C/C/C=C\\CNC1=O (some centres not stated)" measure=z-score number=0.404

Origin of the recorded values: PubChem BioAssay
